pIC50: −log10 of the molar value.
For human eIF4E protein (Homo sapiens, UniProt P06730), measured pIC50 is reported for the entries below.

Task: In one line, give reported pIC50 of the entry CC(=O)N(C)C1CCc2nc(C)n(CCOc3ccc(Cl)cc3-c3cc(C)nc4c(C(=O)O)csc34)c(=O)c2C1 (stereo not shown) [Compound 38] .
Output: 6.30 to 7.00

Task: In one line, give reported pIC50 of the entry Cc1cc(-c2cc(Cl)ccc2OCCn2c(C)nc3c(c2=O)C[C@H](N2CCC(Oc4ccc(F)cc4F)CC2)CC32CC2)c2scc(C(=O)O)c2n1 (single isomer, unassigned) [Compound 611] .
Output: > 7.00

Task: In one line, give reported pIC50 of the entry Cc1cc(-c2cc(Cl)ccc2OCCn2c(C)nc3c(c2=O)C[C@H](N2CCC(c4cnc(C(F)(F)F)nc4)CC2)CC3)c2scc(C(=O)O)c2n1 (single isomer, unassigned) [Compound 584] .
Output: > 7.00

Task: In one line, give reported pIC50 of the entry Cc1cc(-c2cc(Cl)ccc2OCCn2c(C)nc3c(c2=O)C[C@@H](N2CCCC[C@@H]2c2cccc(F)c2)CC3)c2scc(C(=O)O)c2n1 (single isomer, unassigned) [Compound 543] .
Output: > 7.00
